- assay.protocol: Half life in dog liver microsomes
- Assay type: ADME, Canis lupus familiaris, Microsome
Form field: half-life (one value per entry).
Report only the number, with the unit min understood.

{"columns": ["structure.notation", "reported"],
 "data": [
  ["O=S(=O)(c1cccc(F)c1)c1ccc2c3c(oc2c1)CNCC3", 10.3]
]}

Switching to the query record.
Prompt: # input molecule: `CC1(C)NCCc2c1oc1cc(S(=O)(=O)c3cccc(F)c3)ccc21` ; wanted: its half-life
Response: 32

====

pKi tested on 5-hydroxytryptamine receptor 6 (Rattus norvegicus): recorded values
Sequence (P31388 whole entry): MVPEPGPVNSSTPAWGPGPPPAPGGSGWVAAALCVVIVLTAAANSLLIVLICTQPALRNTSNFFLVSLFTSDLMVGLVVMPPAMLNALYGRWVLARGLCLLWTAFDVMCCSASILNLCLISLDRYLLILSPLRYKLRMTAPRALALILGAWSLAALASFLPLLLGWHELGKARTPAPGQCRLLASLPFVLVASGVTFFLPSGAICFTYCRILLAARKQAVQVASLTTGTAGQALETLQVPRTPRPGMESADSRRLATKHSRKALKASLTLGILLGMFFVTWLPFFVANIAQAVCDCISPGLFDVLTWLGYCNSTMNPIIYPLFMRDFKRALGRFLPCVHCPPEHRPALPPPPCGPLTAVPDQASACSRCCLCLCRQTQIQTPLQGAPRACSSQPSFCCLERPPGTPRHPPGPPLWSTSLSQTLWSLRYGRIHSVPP
Conceptually, pKi converts a concentration in mol/L into minus its log10.

Recorded pKi, per entry:
{"columns": ["compound", "experimental.endpoint", "reported"],
 "data": [
  ["O=S(=O)(c1cccc(F)c1)c1ccc2c3c(oc2c1)C1(CCOC1)NCC3 (racemic)", "pKi", 6.88],
  ["O=S(=O)(c1cccc(F)c1)c1ccc2c3c(oc2c1)C1(CCCOC1)NCC3 (stereo in doubt; 2)", "pKi", 7.77],
  ["O=S(=O)(c1cccc(F)c1)c1ccc2c3c(oc2c1)C1(CCCOC1)NCC3 (racemic)", "pKi", 7.42]
]}

Prompt: Hi! What's the reported pKi for COCC1(C)NCCc2c1oc1cc(S(=O)(=O)c3cccc(F)c3)ccc21 (configuration not stated) on 5-hydroxytryptamine receptor 6 (Rattus norvegicus)?
Response: 6.95

Prompt: Fill in the recorded pKi for this compound, with 5-hydroxytryptamine receptor 6 (Rattus norvegicus) as test system: `O=S(=O)(c1cccc(F)c1)c1ccc2c3c(oc2c1)C1(CCOCC1)NCC3`
Response: 7.85

Prompt: Please tell me: pKi of `COc1cccc(S(=O)(=O)c2ccc3c4c(oc3c2)CNCC4)c1` , system 5-hydroxytryptamine receptor 6 (Rattus norvegicus)?
Response: 7.47

Prompt: API: value(readout=pKi, system=5-hydroxytryptamine receptor 6 (Rattus norvegicus)) for record `CC1(C)NCCc2c1oc1cc(S(=O)(=O)c3ccccc3)ccc21`
Response: 7.39
